Entry source: ChEMBL document CHEMBL1145331

TESTED TARGET: Estrogen receptor beta (Homo sapiens) (UniProt Q92731)
Sequence (Q92731 whole entry): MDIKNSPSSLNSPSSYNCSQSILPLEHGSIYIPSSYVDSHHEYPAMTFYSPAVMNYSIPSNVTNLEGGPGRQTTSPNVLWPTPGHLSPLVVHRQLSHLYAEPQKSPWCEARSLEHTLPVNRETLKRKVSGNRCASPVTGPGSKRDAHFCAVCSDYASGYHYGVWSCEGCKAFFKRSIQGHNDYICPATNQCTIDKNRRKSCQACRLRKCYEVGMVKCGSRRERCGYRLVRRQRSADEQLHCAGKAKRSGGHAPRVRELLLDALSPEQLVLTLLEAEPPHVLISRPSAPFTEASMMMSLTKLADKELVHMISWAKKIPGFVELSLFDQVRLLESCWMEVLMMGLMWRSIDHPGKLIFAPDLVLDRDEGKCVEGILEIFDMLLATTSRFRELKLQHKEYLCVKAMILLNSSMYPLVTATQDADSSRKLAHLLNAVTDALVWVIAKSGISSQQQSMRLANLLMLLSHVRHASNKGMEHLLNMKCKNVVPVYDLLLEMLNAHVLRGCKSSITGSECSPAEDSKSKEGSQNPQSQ
ASSAY NOTES: Displacement of [3H]estradiol from human ERbeta relative to estradiol
READOUT NAME: relative binding affinity (RBA)

Take a look at these entries with their results.
{"MOLECULE SMILES": "CNc1c(/C=N/O)ccc(-c2ccccc2)c1-c1ccc(O)cc1", "OBSERVED RESULT": 0.72}
{"MOLECULE SMILES": "CNc1c(/C=N/O)ccc(-c2cccc(C)c2)c1-c1cccc(C)c1", "OBSERVED RESULT": 2.13}
{"MOLECULE SMILES": "CNc1c(/C=N/O)ccc(-c2ccc(C)cc2)c1-c1ccc(C)cc1", "OBSERVED RESULT": 1.86}
{"MOLECULE SMILES": "CNc1c(/C=N/O)ccc(-c2cccc(O)c2)c1-c1cccc(O)c1", "OBSERVED RESULT": 0.05}

1. CNc1c(/C=N/O)ccc(-c2ccc(OC)cc2)c1-c1ccc(OC)cc1
2. CNc1c(/C=N/O)ccc(-c2ccc(O)cc2)c1-c1ccccc1
3. CNc1c(/C=N/O)ccc(-c2cccc(OC)c2)c1-c1cccc(OC)c1
Hey, can you sort those molecules up there by relative binding affinity (RBA), smallest first? Arrange the labels as the request states and list them.
3, 1, 2
